Test system: NCI-H157
Test: Antiproliferative activity against human NCI-H157 cells assessed as reduction in cell viability incubated for 24 hrs by MTT assay
Type: functional, cell-based
Conditions: NCI-H157, 24 h
pIC50: −log10 of the molar value.
Assay metric: pIC50

The value of pIC50 recorded for "C#CC(=O)Nc1ccc(-n2nc(CCC(=O)NC)cc2-c2ccc(-c3ccc(C(F)(F)F)cc3)cc2)cc1" when tested on NCI-H157 reads < 5.70

###

System: PC-3
Assay: Antiproliferative activity against human PC3 cells assessed as reduction in cell viability incubated for 24 hrs by MTT assay
Format: functional, cell-based
Conditions: PC-3, 24 h
Assay metric: pIC50
Please note pIC50 is a logarithmic value: minus log10 of concentration in mol/L. Answer with that number alone.

Lookup result for "C#CC(=O)Nc1ccc(-n2nc(CCC(=O)NC)cc2-c2ccc(-c3ccc(C(F)(F)F)cc3)cc2)cc1" ; measured pIC50: 6.22
